// data source = ChEMBL document CHEMBL1143710

System: Staphylococcus aureus
Experiment: Antibacterial activity against Staphylococcus aureus ATCC 25923 after 24 hrs
Type: functional
Settings: ATCC 25923, 24 h
// reported MIC per item

molecule	experimental.system	units.of.measure	limit.sign	MIC
CCCCCCCCCCCCCCCCCCOCC(O)COP(=O)([O-])OCC[N+](C)(C)C (stereo not given)	Staphylococcus aureus	µM	=	22
CCCCCCCCCCCCCCCCOP(=O)([O-])OCC[N+](C)(C)C	Staphylococcus aureus	µM	=	44
CCCCC(CC)CNC(=O)CCCCCOP(=O)([O-])OCC[N+](C)(C)C (stereo not given)	Staphylococcus aureus	µM	>	350
CC1(C)S[C@@H]2[C@H](NC(=O)[C@H](N)c3ccc(O)cc3)C(=O)N2[C@H]1C(=O)O	Staphylococcus aureus	µM	=	0.7
CCCCCCCC/C=C/CCCCCCCCOP(=O)([O-])OCC[N+](C)(C)C	Staphylococcus aureus	µM	=	22
CCCCCCCCCNC(=O)CCCCCOP(=O)([O-])OCC[N+](C)(C)C	Staphylococcus aureus	µM	>	350
CCCCCCCCCCCCCCCCCCOCC(COP(=O)([O-])OCC[N+](C)(C)C)OC (stereo not given)	Staphylococcus aureus	µM	=	44
CCCCCCCCCCCCCCCCCC(=O)NCC(COP(=O)([O-])OCC[N+](C)(C)C)OC (stereo not given)	Staphylococcus aureus	µM	=	44
CCCCCCCCCCCCCCCCCCOP(=O)([O-])OCC[N+](C)(C)C	Staphylococcus aureus	µM	=	22
CCCCCCCC/C=C\CCCCCCCCCCCCOP(=O)([O-])OCC[N+](C)(C)C	Staphylococcus aureus	µM	>	350

====

Listed next: entries and their corresponding hemolysis at 175 µM.
Test: Toxicity assessed as haemolytic activity against human erythrocytes at 175 uM
Assay type: cell-based, Erythrocyte
Details: read-out: Activity

molecule	units.of.measure	hemolysis at 175 µM
CCCCCCCCCCCCOP(=O)([O-])OCC[N+](C)(C)C	%	0
CCCCCCCCCOC(=O)CCCCCOP(=O)([O-])OCC[N+](C)(C)C	%	0
CCCCC(CC)CNC(=O)CCCCCOP(=O)([O-])OCC[N+](C)(C)C (centres undefined)	%	0
CCCCCCCCCCCCCCCCCCOP(=O)([O-])OCC[N+](C)(C)C [OCTADECYLPHOSPHONOCHOLINE]	%	100

====

Listing of entries alongside the reported hemolysis at 17.5 µM.
Test: Toxicity assessed as haemolytic activity against human erythrocytes at 17.5 uM
Type: cell-based, Erythrocyte
Conditions: read-out: Activity
experimental.endpoint: hemolysis at 17.5 µM

smiles.data	experimental.endpoint	assay.result
CCCCCCCCCOC(=O)CCCCCOP(=O)([O-])OCC[N+](C)(C)C	hemolysis at 17.5 µM	0%
CCCCCCCCCCCCCCCCOP(=O)([O-])OCC[N+](C)(C)C	hemolysis at 17.5 µM	0%
CCCCCCCC/C=C/CCCCCCCCOP(=O)([O-])OCC[N+](C)(C)C	hemolysis at 17.5 µM	0%
CCCCCCCCCCCCCCCCCCOP(=O)([O-])OCC[P+](C)(C)C	hemolysis at 17.5 µM	2%
CCCCCCCCCCCCCCCCCCOP(=O)([O-])OCC[N+](C)(C)C	hemolysis at 17.5 µM	0%

====

Test: Toxicity assessed as haemolytic activity against human erythrocytes at 44 uM
Type: cell-based, Erythrocyte
Conditions: read-out: Activity
Listed next: entries and their corresponding hemolysis at 44 µM.

smiles.data	hemolysis at 44 µM / %
CCCCCCCCCCCCCCCCCCOP(=O)([O-])OCC[P+](C)(C)C	40
CC(C)[C@H](NC(=O)CCCCCOP(=O)([O-])OCC[N+](C)(C)C)C(N)=O	0
CCCCCCCC/C=C\CCCCCCCCCCCCOP(=O)([O-])OCC[N+](C)(C)C	0
CCCCCCCCCOC(=O)CCCCCOP(=O)([O-])OCC[N+](C)(C)C	0

====

Assay: Toxicity assessed as haemolytic activity against human erythrocytes at 3.5 uM
Format: cell-based, Erythrocyte
Conditions: read-out: Activity
Here, each record is paired with measured hemolysis at 3.5 µM data.

compound	hemolysis at 3.5 µM / %
CCCCCCCCCCCCCCCCOP(=O)([O-])OCC[N+](C)(C)C [MILTEFOSINE]	0
CCCCCCCCCCCCCCCCCCOP(=O)([O-])OCC[P+](C)(C)C	0
CCCCCCCC/C=C\CCCCCCCCCCCCOP(=O)([O-])OCC[N+](C)(C)C [ERUFOSINE]	0
CCCCCCCCCCCCCCCCCCOCC(COP(=O)([O-])OCC[N+](C)(C)C)OC (stereo not drawn) [EDELFOSINE]	0
CC(C)[C@H](NC(=O)CCCCCOP(=O)([O-])OCC[N+](C)(C)C)C(N)=O	0
CCCCCCCCCCCCCCCCCC(=O)NCC(COP(=O)([O-])OCC[N+](C)(C)C)OC (stereo not drawn)	0
CCCCCCCCCOC(=O)CCCCCOP(=O)([O-])OCC[N+](C)(C)C	0
CCCCCCCCCCCCOP(=O)([O-])OCC[N+](C)(C)C	0
CCCCCCCC/C=C/CCCCCCCCOP(=O)([O-])OCC[N+](C)(C)C [ELAIDYLPHOSPHOCHOLINE]	0
CCCCCCCCCCCCCCCCCCOP(=O)([O-])OCC[N+](C)(C)C [OCTADECYLPHOSPHONOCHOLINE]	0
CCCCCCCCCNC(=O)CCCCCOP(=O)([O-])OCC[N+](C)(C)C	0
CCCCCCCCCCCCCCCCCCOCC(O)COP(=O)([O-])OCC[N+](C)(C)C (stereo not drawn)	0
CCCCC(CC)CNC(=O)CCCCCOP(=O)([O-])OCC[N+](C)(C)C (stereo not drawn)	0

====

Experiment: Toxicity assessed as haemolytic activity against human erythrocytes at 44 uM
Assay type: cell-based, Erythrocyte
Details: read-out: Activity
experimental.endpoint: hemolysis at 44 µM (%)

molecule	experimental.endpoint	units.of.measure	assay.result
CCCCCCCCCNC(=O)CCCCCOP(=O)([O-])OCC[N+](C)(C)C	hemolysis at 44 µM	%	0
CCCCC(CC)CNC(=O)CCCCCOP(=O)([O-])OCC[N+](C)(C)C (centres undefined)	hemolysis at 44 µM	%	0
CCCCCCCCCCCCCCCCCCOP(=O)([O-])OCC[N+](C)(C)C	hemolysis at 44 µM	%	60
CCCCCCCC/C=C/CCCCCCCCOP(=O)([O-])OCC[N+](C)(C)C	hemolysis at 44 µM	%	0
CCCCCCCCCCCCCCCCCCOCC(COP(=O)([O-])OCC[N+](C)(C)C)OC (centres undefined)	hemolysis at 44 µM	%	13
CCCCCCCCCCCCOP(=O)([O-])OCC[N+](C)(C)C	hemolysis at 44 µM	%	0
CCCCCCCCCCCCCCCCCCOCC(O)COP(=O)([O-])OCC[N+](C)(C)C (centres undefined)	hemolysis at 44 µM	%	10
CCCCCCCCCCCCCCCCCC(=O)NCC(COP(=O)([O-])OCC[N+](C)(C)C)OC (centres undefined)	hemolysis at 44 µM	%	5
CCCCCCCCCCCCCCCCOP(=O)([O-])OCC[N+](C)(C)C	hemolysis at 44 µM	%	5

====

Assay: Toxicity assessed as haemolytic activity against human erythrocytes at 175 uM
Type: cell-based, Erythrocyte
Details: read-out: Activity
experimental.endpoint: hemolysis at 175 µM (%)

compound	units.of.measure	assay.result
CCCCCCCCCNC(=O)CCCCCOP(=O)([O-])OCC[N+](C)(C)C	%	0
CC(C)[C@H](NC(=O)CCCCCOP(=O)([O-])OCC[N+](C)(C)C)C(N)=O	%	0
CCCCCCCCCCCCCCCCCCOP(=O)([O-])OCC[P+](C)(C)C	%	100
CCCCCCCCCCCCCCCCCCOCC(COP(=O)([O-])OCC[N+](C)(C)C)OC (centres undefined) [EDELFOSINE]	%	100
CCCCCCCCCCCCCCCCCCOCC(O)COP(=O)([O-])OCC[N+](C)(C)C (centres undefined)	%	100
CCCCCCCC/C=C\CCCCCCCCCCCCOP(=O)([O-])OCC[N+](C)(C)C [ERUFOSINE]	%	90
CCCCCCCCCCCCCCCCCC(=O)NCC(COP(=O)([O-])OCC[N+](C)(C)C)OC (centres undefined)	%	100
CCCCCCCCCCCCCCCCOP(=O)([O-])OCC[N+](C)(C)C [MILTEFOSINE]	%	95
CCCCCCCC/C=C/CCCCCCCCOP(=O)([O-])OCC[N+](C)(C)C [ELAIDYLPHOSPHOCHOLINE]	%	100

====

Test: Toxicity assessed as haemolytic activity against human erythrocytes at 88 uM
Type: cell-based, Erythrocyte
Conditions: read-out: Activity
experimental.endpoint: hemolysis at 88 µM (%)

molecule	experimental.endpoint	units.of.measure	assay.result
CCCCCCCCCCCCCCCCCCOCC(O)COP(=O)([O-])OCC[N+](C)(C)C (stereo not drawn)	hemolysis at 88 µM	%	86
CCCCCCCCCCCCCCCCCCOCC(COP(=O)([O-])OCC[N+](C)(C)C)OC (stereo not drawn)	hemolysis at 88 µM	%	83
CCCCCCCC/C=C/CCCCCCCCOP(=O)([O-])OCC[N+](C)(C)C	hemolysis at 88 µM	%	50
CC(C)[C@H](NC(=O)CCCCCOP(=O)([O-])OCC[N+](C)(C)C)C(N)=O	hemolysis at 88 µM	%	0
CCCCCCCCCNC(=O)CCCCCOP(=O)([O-])OCC[N+](C)(C)C	hemolysis at 88 µM	%	0
CCCCCCCCCCCCCCCCCCOP(=O)([O-])OCC[P+](C)(C)C	hemolysis at 88 µM	%	97
CCCCCCCCCCCCCCCCCCOP(=O)([O-])OCC[N+](C)(C)C	hemolysis at 88 µM	%	92
CCCCCCCC/C=C\CCCCCCCCCCCCOP(=O)([O-])OCC[N+](C)(C)C	hemolysis at 88 µM	%	15
CCCCCCCCCCCCOP(=O)([O-])OCC[N+](C)(C)C	hemolysis at 88 µM	%	0
CCCCCCCCCCCCCCCCCC(=O)NCC(COP(=O)([O-])OCC[N+](C)(C)C)OC (stereo not drawn)	hemolysis at 88 µM	%	56
CCCCCCCCCCCCCCCCOP(=O)([O-])OCC[N+](C)(C)C	hemolysis at 88 µM	%	25
CCCCC(CC)CNC(=O)CCCCCOP(=O)([O-])OCC[N+](C)(C)C (stereo not drawn)	hemolysis at 88 µM	%	0
CCCCCCCCCOC(=O)CCCCCOP(=O)([O-])OCC[N+](C)(C)C	hemolysis at 88 µM	%	0
